// reported IC50 for each item listed
target: Renin (Homo sapiens, UniProt P00797); assay: In vitro inhibitory activity against human plasma renin
Numbered stars: 1 amine (or outer) side, 2 acyl side, 3 side chain; on linkers, the order of the positions; unused ones are H or OH. Square brackets hold non-standard residues; d marks the D form. Peptide text beside a SMILES is read from it. * marks the point of attachment. ξ: configuration not given here. Sta(3ξ) = CC(C)C[C@H](N[*:1])C(O)CC(=O)[*:2]; For = O=C*
PROPERTY_MEASURED: IC50 (µM)

INSERT INTO assay_data (compound, system_name, property_measured, experimental_result) VALUES
  ('CC(=O)N[C@@H](Cc1cnc[nH]1)C(=O)N1CCC[C@H]1C(=O)N[C@@H](Cc1ccccc1)C(=O)N[C@@H](Cc1cnc[nH]1)C(=O)N[C@@H](Cc1ccccc1)C(=O)N[C@@H](Cc1ccccc1)C(=O)N[C@H](C(=O)N[C@@H](Cc1cn(C=O)c2ccccc12)C(N)=O)C(C)C (Ac-HPFHFFVW(For)-NH2)', 'Renin (Homo sapiens, UniProt P00797)', 'IC50', 8.3),
  ('CC[C@H](C)[C@H](NC(=O)CC(O)[C@H](CC(C)C)NC(=O)[C@H](Cc1c[nH]cn1)NC(=O)[C@H](Cc1ccccc1)NC(=O)[C@@H]1CCCN1C(=O)[C@H](Cc1c[nH]c2ccccc12)NC(C)=O)C(N)=O (some centres not stated) (Ac-WPFH[Sta(3ξ)]I-NH2)', 'Renin (Homo sapiens, UniProt P00797)', 'IC50', 0.0016);

====

Biological target: Renin (Homo sapiens)
Sequence (P00797 whole entry): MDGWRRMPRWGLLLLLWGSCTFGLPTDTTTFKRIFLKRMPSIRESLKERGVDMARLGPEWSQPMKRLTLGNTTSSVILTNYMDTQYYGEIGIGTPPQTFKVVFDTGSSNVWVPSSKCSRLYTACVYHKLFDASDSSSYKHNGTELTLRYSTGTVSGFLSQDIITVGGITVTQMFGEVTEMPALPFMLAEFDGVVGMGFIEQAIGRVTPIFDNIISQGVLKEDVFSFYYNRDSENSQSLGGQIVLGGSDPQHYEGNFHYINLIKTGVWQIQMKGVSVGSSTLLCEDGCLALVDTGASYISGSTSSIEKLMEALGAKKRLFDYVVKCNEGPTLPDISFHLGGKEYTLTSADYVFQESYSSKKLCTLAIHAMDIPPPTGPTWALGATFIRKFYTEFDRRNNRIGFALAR
Experiment: In vitro inhibitory activity against human plasma renin
Numbered stars: 1 amine (or outer) side, 2 acyl side, 3 side chain; on linkers, the order of the positions; unused ones are H or OH. Square brackets hold non-standard residues; d marks the D form. Peptide text beside a SMILES is read from it. * marks the point of attachment. X5 = CC(C)C[C@@H](CN[C@H](C(N)=O)C(C)C)N*; X1 = CC(C)CC(N[*:1])C(O)CC(=O)[*:2]; For = O=C*
PROPERTY_MEASURED: IC50 (nM)

INSERT INTO results (compound, property_measured, quantity_unit, experimental_result) VALUES
  ('CC(=O)N[C@@H](Cc1cn(C=O)c2ccccc12)C(=O)N1CCC[C@H]1C(=O)N[C@@H](Cc1ccccc1)C(=O)N[C@@H](Cc1cnc[nH]1)C(=O)N[C@@H](Cc1ccccc1)C(=O)N[C@@H](Cc1ccccc1)C(=O)N[C@H](C(N)=O)C(C)C (Ac-W(For)PFHFFV-NH2)', 'IC50', 'nM', 2100),
  ('CC(=O)N[C@@H](Cc1cn(C=O)c2ccccc12)C(=O)N1CCC[C@H]1C(=O)N[C@@H](Cc1ccccc1)C(=O)N[C@@H](Cc1cnc[nH]1)C(=O)NC(CC(C)C)C(O)CC(=O)N[C@H](C(=O)N[C@@H](Cc1cn(C=O)c2ccccc12)C(N)=O)C(C)C (some centres undefined) (Ac-W(For)PFH[X1]VW(For)-NH2)', 'IC50', 'nM', 0.38),
  ('CC(=O)N[C@@H](Cc1cn(C=O)c2ccccc12)C(=O)N1CCC[C@H]1C(=O)N[C@@H](Cc1ccccc1)C(=O)N[C@@H](Cc1c[nH]cn1)C(=O)N[C@H](CN[C@H](C(N)=O)C(C)C)CC(C)C (Ac-W(For)PFH-X5)', 'IC50', 'nM', 21),
  ('CC[C@H](C)[C@H](NC(=O)CC(O)[C@H](CC(C)C)NC(=O)[C@H](Cc1cnc[nH]1)NC(=O)[C@H](Cc1ccccc1)NC(=O)[C@@H]1CCCN1C(=O)[C@H](Cc1cn(C=O)c2ccccc12)NC(C)=O)C(N)=O (some centres undefined)', 'IC50', 'nM', 0.1);
